- MEASUREMENT PROTOCOL: clinical
- CONDITION PARAMETERS: human, in vivo, iv, 1.4 g/m'2
- Description: Systemic clearance in patient (6 patients) with moderate renal insufficiency at 1.4 +/- 0.1 g/m'2 administered as pulse therapy with 1 hr infusion by HPLC analysis
RESULT TYPE: clearance at 1 h (mL/min)

COMPOUND: O=P1(N(CCCl)CCCl)NCCCO1 (stereo unspecified) [CYCLOPHOSPHAMIDE ANHYDROUS]
UNIT ANNOTATION: mL/min
RECORDED NUMBER: 57

----------
- MEASUREMENT PROTOCOL: clinical
- CONDITION PARAMETERS: human, in vivo, iv, 1.4 g/m'2
- Description: Renal clearance in patient (6 patients) with moderate renal insufficiency at 1.4 +/- 0.1 g/m'2 administered as pulse therapy with 1 hr infusion by HPLC analysis
RESULT TYPE: CL renal at 1 h (mL/min)

MOLECULE: O=P1(N(CCCl)CCCl)NCCCO1 (stereo unspecified) [CYCLOPHOSPHAMIDE ANHYDROUS]
RESULT TYPE: CL renal at 1 h
UNIT ANNOTATION: mL/min
RECORDED NUMBER: 3.4

----------
- MEASUREMENT PROTOCOL: Drug excretion in urine of patient (6 patients) with hemodialysis-dependent end-stage renal disease at 1.2 +/- 0.4 g/m'2 administered as pulse therapy with 1 hr infusion followed by hemodialysis for 3 hrs started 7 hrs post dose measured during hemodialysis treatment by HPLC analysis
- CONDITION PARAMETERS: human, iv, 1.2 g/m'2

MOLECULE: O=P1(N(CCCl)CCCl)NCCCO1 (stereo unspecified) [CYCLOPHOSPHAMIDE ANHYDROUS]
dose excreted / %: 3

----------
- MEASUREMENT PROTOCOL: Volume of distribution at steady state in patient (6 patients) with severe renal insufficiency at 1.1 +/- 0.2 g/m'2 administered as pulse therapy with 1 hr infusion by HPLC analysis
- CONDITION PARAMETERS: human, in vivo, iv, 1.1 g/m'2

COMPOUND: O=P1(N(CCCl)CCCl)NCCCO1 (stereo unspecified) [CYCLOPHOSPHAMIDE ANHYDROUS]
Vd at 1 h / L/kg: 0.36

----------
- MEASUREMENT PROTOCOL: clinical
- CONDITION PARAMETERS: human, in vivo, iv, 1.2 g/m'2
- Description: Renal clearance in patient (6 patients) with hemodialysis-dependent end-stage renal disease at 1.2 +/- 0.4 g/m'2 administered as pulse therapy with 1 hr infusion followed by hemodialysis for 3 hrs started 7 hrs post dose measured during hemodialysis treatment by HPLC analysis

MOLECULE: O=P1(N(CCCl)CCCl)NCCCO1 (stereo unspecified) [CYCLOPHOSPHAMIDE ANHYDROUS]
CL renal at 7 h (mL/min): 2.1

----------
- MEASUREMENT PROTOCOL: clinical
- CONDITION PARAMETERS: human, in vivo, iv, 1.4 g/m'2
- Description: Elimination half life in patient (6 patients) with moderate renal insufficiency at 1.4 +/- 0.1 g/m'2 administered as pulse therapy with 1 hr infusion by HPLC analysis

COMPOUND: O=P1(N(CCCl)CCCl)NCCCO1 (stereo unspecified) [CYCLOPHOSPHAMIDE ANHYDROUS]
half-life at 1 h, h: 6.4

----------
- MEASUREMENT PROTOCOL: Drug excretion in urine of patient ( 12 patients) with normal renal function at 0.83 +/- 0.05 g/m'2 administered as pulse therapy with 1 hr infusion by HPLC analysis
- CONDITION PARAMETERS: human, iv, 0.83 g/m'2
RESULT TYPE: dose excreted at 1 h (%)

COMPOUND: O=P1(N(CCCl)CCCl)NCCCO1 (stereo unspecified) [CYCLOPHOSPHAMIDE ANHYDROUS]
RESULT TYPE: dose excreted at 1 h
UNIT ANNOTATION: %
RECORDED NUMBER: 19.1

----------
- MEASUREMENT PROTOCOL: clinical
- CONDITION PARAMETERS: human, in vivo, iv, 1.2 g/m'2
- Description: Elimination half life in patient (6 patients) with hemodialysis-dependent end-stage renal disease at 1.2 +/- 0.4 g/m'2 administered as pulse therapy with 1 hr infusion followed by hemodialysis for 3 hrs started 7 hrs post dose measured during hemodialysis treatment by HPLC analysis

MOLECULE: O=P1(N(CCCl)CCCl)NCCCO1 (stereo unspecified) [CYCLOPHOSPHAMIDE ANHYDROUS]
half-life [h]: 7.3
